Target or test system: DLG1_2, Q12959
Sequence (Q12959 314-412): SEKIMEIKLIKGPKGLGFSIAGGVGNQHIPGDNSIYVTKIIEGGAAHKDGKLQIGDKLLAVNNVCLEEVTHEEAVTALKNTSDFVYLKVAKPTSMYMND
Protocol: holdup assay
Parameters: key: below the threshold = too weak to quantify, mostly under pKd 3.1 to 4
Conditions used: plain residues with an end cap or a label only (N-terminal biotin on a linker: ado-ado)
Some binders, each annotated with its measured pKd.

[
  {
    "Binder": "FHSIKQSTAV [CRHR1, P34998]",
    "pKd": 4.98
  },
  {
    "Binder": "THREVKFTSL [CD46, P15529]",
    "pKd": 3.88
  },
  {
    "Binder": "KLQNPNQSVV [TYRP1, P17643]",
    "pKd": 4.06
  },
  {
    "Binder": "EPAKETTTNV [SLC2A3, P11169]",
    "pKd": 4.42
  },
  {
    "Binder": "VYEVPVETKF [SLC26A3, P40879]",
    "pKd": 3.59
  },
  {
    "Binder": "GVHSNDHSVV [LPAR1, Q92633]",
    "pKd": 3.99
  },
  {
    "Binder": "HLSTRQGTCV [ATRNL1, Q5VV63]",
    "pKd": 4.55
  },
  {
    "Binder": "THHRKIHTRV [ZNF599, Q96NL3]",
    "pKd": 5.53
  },
  {
    "Binder": "YAEKRMLTEV [KCNA6, P17658]",
    "pKd": 4.23
  },
  {
    "Binder": "QLKSGRDSTV [TMEM178A, Q8NBL3]",
    "pKd": 4.64
  }
]
